Values were extracted from DBAASP.

These compounds were tested on Xanthomonas vesicatoria DSM 50861; MIC is the recorded read-out.
Provide the reading as a plain figure in µM.

INPUT: Field request: MIC | item: CC[C@H](C)[C@H](NC(=O)[C@H](CC(C)C)NC(=O)[C@@H](N)CC(C)C)C(=O)N[C@@H](CCCN=C(N)N)C(=O)N[C@@H](C)C(=O)N[C@@H](C)C(=O)N[C@@H](CCCCN)C(=O)N[C@@H](CCCCN)C(=O)N[C@@H](Cc1ccccc1)C(=O)N[C@H](C(=O)N[C@@H](CCCCN)C(=O)N[C@@H](CCCCN)C(N)=O)[C@@H](C)CC
OUTPUT: 28

INPUT: Okay, and CC(C)C[C@H](NC(=O)[C@H](C)NC(=O)[C@H](CCCCN)NC(=O)[C@H](CCCCN)NC(=O)[C@H](CC(C)C)NC(=O)[C@H](Cc1ccccc1)NC(=O)[C@H](CCCN=C(N)N)NC(=O)[C@@H](N)CC(C)C)C(=O)N[C@@H](CCCCN)C(=O)N[C@@H](CCCCN)C(=O)N[C@@H](CC(C)C)C(=O)N[C@@H](Cc1ccccc1)C(N)=O ?
OUTPUT: 0.166
